test system: Escherichia coli TOP10; test: shrunken log2 fold change of peptide-encoding DNA abundance (4.5 h post-induction vs induction); higher = less antimicrobial activity (less host growth inhibition); settings: time post-induction: 4.5 h; library: site-saturation at positions 5, 18, 19, 20;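 further: peptides expressed intracellularly from a pBAD plasmid library in pooled LB shake-flask culture, induced with 0.3% L-arabinose, DNA abundance read by NGS, three biological replicates, DESeq2 with apeglm shrinkage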
The threshold is inclusive: shrunken log2 fold change of exactly -0.04 counts as Yes; values below receive No.

ordered-residues | answer-label
RRIRNRPPRLPRPRPRPLWTPRP | No
RRIRPRPPRLPRPRPRPSFCPRP | Yes
RRIRFRPPRLPRPRPRPIVVPRP | Yes
RRIRHRPPRLPRPRPRPMVNPRP | No
RRIRCRPPRLPRPRPRPDCDPRP | No
RRIRIRPPRLPRPRPRPYSVPRP | No
RRIRHRPPRLPRPRPRPVVHPRP | No
RRIRMRPPRLPRPRPRPKMKPRP | Yes
RRIRWRPPRLPRPRPRPKQIPRP | Yes
RRIRSRPPRLPRPRPRPVTTPRP | No
RRIRQRPPRLPRPRPRPPSKPRP | Yes
RRIRTRPPRLPRPRPRPWEPPRP | No
RRIRGRPPRLPRPRPRPAAAPRP | Yes
RRIRQRPPRLPRPRPRPYAAPRP | No
RRIRCRPPRLPRPRPRPEDDPRP | Yes
RRIRSRPPRLPRPRPRPIPMPRP | Yes
RRIRWRPPRLPRPRPRPCIQPRP | No
RRIRYRPPRLPRPRPRPALTPRP | No
RRIRDRPPRLPRPRPRPRSQPRP | Yes
RRIRFRPPRLPRPRPRPTPHPRP | Yes
RRIRGRPPRLPRPRPRPPKKPRP | Yes
RRIRRRPPRLPRPRPRPEKQPRP | Yes
RRIRVRPPRLPRPRPRPCNPPRP | No
RRIRSRPPRLPRPRPRPRSEPRP | Yes
RRIRTRPPRLPRPRPRPSQMPRP | No
RRIRHRPPRLPRPRPRPEFMPRP | Yes
RRIRGRPPRLPRPRPRPDMVPRP | No
RRIRLRPPRLPRPRPRPRGHPRP | Yes
RRIRDRPPRLPRPRPRPCSNPRP | Yes
RRIRMRPPRLPRPRPRPYYFPRP | No
RRIRTRPPRLPRPRPRPYHQPRP | No
RRIRDRPPRLPRPRPRPYVYPRP | Yes

Where do the numbers come from? From the supplement of paper PMC9112550.
